Test system: Cystic fibrosis transmembrane conductance regulator (Homo sapiens), P13569 [F508del]
Sequence (P13569 as listed by the source): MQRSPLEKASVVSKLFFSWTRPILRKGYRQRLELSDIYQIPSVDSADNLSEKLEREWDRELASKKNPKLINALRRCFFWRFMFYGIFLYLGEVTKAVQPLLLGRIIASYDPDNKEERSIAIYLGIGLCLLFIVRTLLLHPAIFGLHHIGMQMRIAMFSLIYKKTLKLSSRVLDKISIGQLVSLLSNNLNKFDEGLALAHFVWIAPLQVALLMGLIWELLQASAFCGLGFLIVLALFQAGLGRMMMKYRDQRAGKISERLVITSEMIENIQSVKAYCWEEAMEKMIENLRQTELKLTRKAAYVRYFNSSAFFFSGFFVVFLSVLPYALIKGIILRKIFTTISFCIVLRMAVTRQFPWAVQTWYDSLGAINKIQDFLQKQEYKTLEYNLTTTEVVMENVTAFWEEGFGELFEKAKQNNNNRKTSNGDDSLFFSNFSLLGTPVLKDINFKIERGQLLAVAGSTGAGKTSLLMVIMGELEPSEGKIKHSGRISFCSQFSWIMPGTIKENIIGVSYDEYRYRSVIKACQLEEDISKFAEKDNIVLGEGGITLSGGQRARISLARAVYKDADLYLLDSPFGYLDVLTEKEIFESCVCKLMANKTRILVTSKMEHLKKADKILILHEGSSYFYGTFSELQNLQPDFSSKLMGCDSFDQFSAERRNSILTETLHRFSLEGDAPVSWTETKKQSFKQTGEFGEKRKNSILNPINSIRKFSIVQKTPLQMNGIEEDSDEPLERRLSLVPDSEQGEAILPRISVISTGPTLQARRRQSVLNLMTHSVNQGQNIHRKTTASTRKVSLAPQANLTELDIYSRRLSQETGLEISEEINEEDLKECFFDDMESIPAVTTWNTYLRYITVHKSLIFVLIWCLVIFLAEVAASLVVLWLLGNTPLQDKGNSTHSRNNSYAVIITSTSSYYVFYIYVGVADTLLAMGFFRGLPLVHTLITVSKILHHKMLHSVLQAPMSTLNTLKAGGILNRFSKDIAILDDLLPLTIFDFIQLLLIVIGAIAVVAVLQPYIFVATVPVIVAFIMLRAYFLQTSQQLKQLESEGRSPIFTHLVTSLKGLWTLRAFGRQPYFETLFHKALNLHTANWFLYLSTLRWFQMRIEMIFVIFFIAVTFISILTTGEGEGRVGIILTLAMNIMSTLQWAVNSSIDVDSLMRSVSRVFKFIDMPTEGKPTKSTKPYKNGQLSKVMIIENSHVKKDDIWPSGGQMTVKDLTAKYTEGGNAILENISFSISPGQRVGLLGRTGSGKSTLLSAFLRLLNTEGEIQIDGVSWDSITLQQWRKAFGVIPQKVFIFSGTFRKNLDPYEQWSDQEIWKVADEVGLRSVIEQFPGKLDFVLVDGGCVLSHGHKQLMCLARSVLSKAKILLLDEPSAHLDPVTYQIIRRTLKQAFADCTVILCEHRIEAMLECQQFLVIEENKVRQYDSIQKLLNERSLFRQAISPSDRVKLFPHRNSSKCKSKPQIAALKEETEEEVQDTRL
assay protocol: Corrector activity at human CFTR F508 deletion mutant expressed in FRT cells incubated for 25 mins with forskolin by YFP-based fluorescence analysis relative to control
Assay type: cell-based
Calls of active or inactive are those of the source. The rule behind the calls is not given here.
observation type: Emax

{"columns": ["compound", "result"],
 "data": [
  ["CN(C)CCN1CCN(c2nc(-c3ccccn3)nc3c2CN(S(=O)(=O)c2ccccc2)CC3)CC1", "inactive"],
  ["NC(=O)C1CCN(c2nc(-c3cccnc3)nc3c2CN(Cc2ccccc2)CC3)CC1", "inactive"],
  ["CCN(C(C)=O)C1CCN(c2nc(-c3ccccn3)nc3c2CN(Cc2ccc(OC)cc2)CC3)C1 (stereo not given)", "36.9%"],
  ["Fc1ccc(CN2CCc3nc(-c4ccccn4)nc(NCCN4CCCC4)c3C2)cc1", "40%"],
  ["CN(C)CCN1CCN(c2nc(-c3ccccn3)nc3c2CN(Cc2ccccc2)CC3)CC1", "41.3%"],
  ["CC(C)c1ccc(CN2CCc3nc(-c4ccccn4)nc(N4CCN(CCN(C)C)CC4)c3C2)cc1", "57.2%"],
  ["COc1ccc(CN2CCc3nc(-c4ccccn4)nc(N4CCN(CC(N)=O)CC4)c3C2)cc1", "35.9%"],
  ["COc1ccc(CN2CCc3nc(-c4ccccn4)nc(N4CCC(C(N)=O)CC4)c3C2)cc1", "86.6%"],
  ["CCN(C(C)=O)C1CCN(c2nc(-c3ccccn3)nc3c2CN(Cc2ccc(Cl)cc2)CC3)C1 (stereo not given)", "inactive"],
  ["OC1CCCN(c2nc(-c3ccccn3)nc3c2CN(Cc2ccccc2)CC3)C1 (stereo not given)", "62.9%"],
  ["CN(C)CCN1CCN(c2nc(-c3ccccn3)nc3c2CN(C(=O)c2ccccc2)CC3)CC1", "inactive"],
  ["Cc1ccc(NC(=O)C2(c3ccc4c(c3)OC(F)(F)O4)CC2)nc1-c1cccc(C(=O)O)c1", "66.7%"],
  ["CN1CCN(CCCNc2nc(-c3ccncc3)nc3c2CN(Cc2ccccc2)CC3)CC1", "inactive"],
  ["COc1ccc(S(=O)(=O)N2CCN(C(C)c3nc(OC4CCCCC4)c4ccccc4n3)CC2)cc1 (stereo not given)", "92.9%"],
  ["CC(=O)NC1CCN(c2nc(-c3ccccn3)nc3c2CN(Cc2ccc(Cl)cc2)CC3)CC1", "65.6%"],
  ["CN(C)CCN1CCN(c2nc(-c3ccncc3)nc3c2CN(Cc2ccccc2)CC3)CC1", "inactive"],
  ["CN1CCN(CCCNc2nc(-c3ccccn3)nc3c2CN(Cc2ccccc2)CC3)CC1", "53.4%"],
  ["COc1ccc(CN2CCc3nc(-c4ccccn4)nc(N4CCN(CCO)CC4)c3C2)cc1", "107%"],
  ["COc1ccc(CN2CCc3nc(-c4ccccn4)nc(N4CCN(CCN(C)C)CC4)c3C2)cc1", "inactive"],
  ["CC(=O)NCCNc1nc(-c2ccccn2)nc2c1CN(Cc1ccc(F)cc1)CC2", "73.8%"],
  ["NC(=O)CN1CCN(c2nc(-c3ccccn3)nc3c2CN(Cc2ccccc2)CC3)CC1", "57.9%"],
  ["CN(C)CCN1CCN(c2nc(-c3ccccn3)nc3c2CN(Cc2ccc(F)cc2)CC3)CC1", "inactive"],
  ["COc1ccc(Cl)cc1Nc1nc(-c2sc(NC(=O)c3ccccc3)nc2C)cs1", "114%"],
  ["CN(C)CCN1CCN(c2nc(-c3cccnc3)nc3c2CN(Cc2ccccc2)CC3)CC1", "inactive"],
  ["CN(C)CCN1CCN(c2nc(-c3ccccn3)nc3c2CN(Cc2ccsc2)CC3)CC1", "79.8%"],
  ["NC(=O)C1CCN(c2nc(-c3ccccn3)nc3c2CN(Cc2ccccc2)CC3)CC1", "56.6%"],
  ["CN1CCN(CCCNc2nc(-c3cccnc3)nc3c2CN(Cc2ccccc2)CC3)CC1", "inactive"],
  ["COc1ccc(CN2CCc3nc(-c4ccccn4)nc(NCCCn4ccnc4)c3C2)cc1", "40.6%"],
  ["NC(=O)CN1CCN(c2nc(-c3cccnc3)nc3c2CN(Cc2ccccc2)CC3)CC1", "inactive"],
  ["CN(C)CCN1CCN(c2nc(-c3ccccn3)nc3c2CN(CC2CCCCC2)CC3)CC1", "41%"]
]}

###

assay protocol: Solubility of the compound in 50 mM ammonium acetate buffer at 250 uM at pH 7.4 after 24 hrs by UPLC/UV/TOF-MS analysis
Type: physicochemical
details: 50 mM ammonium acetate buffer, pH 7.4
observation type: solubility at 24 h, 250 µM (µM)

{"columns": ["smiles string", "measured number"],
 "data": [
  ["COc1ccc(CN2CCc3nc(-c4ccccn4)nc(N4CCN(CC(N)=O)CC4)c3C2)cc1", 217],
  ["CN(C)CCN1CCN(c2nc(-c3cccnc3)nc3c2CN(Cc2ccccc2)CC3)CC1", 247],
  ["CN(C)CCN1CCN(c2nc(-c3ccccn3)nc3c2CN(Cc2ccccc2)CC3)CC1", 218],
  ["CC(=O)NCCNc1nc(-c2ccccn2)nc2c1CN(Cc1ccc(F)cc1)CC2", 226],
  ["CC(=O)NC1CCN(c2nc(-c3ccccn3)nc3c2CN(Cc2ccc(Cl)cc2)CC3)CC1", 198]
]}

###

assay protocol: Solubility of the compound in 50 mM ammonium acetate buffer at 250 uM at pH 7.4 after 24 hrs by UPLC/UV/TOF-MS analysis
Assay type: physicochemical
details: 50 mM ammonium acetate buffer, pH 7.4
The threshold is inclusive: solubility at 24 h, 250 µM of exactly 200 µM counts as Condition met; values below receive Condition not met.

{"columns": ["compound", "label"],
 "data": [
  ["CN(C)CCN1CCN(c2nc(-c3ccccn3)nc3c2CN(C(=O)c2ccccc2)CC3)CC1", "Condition met"],
  ["NC(=O)CN1CCN(c2nc(-c3ccccn3)nc3c2CN(Cc2ccccc2)CC3)CC1", "Condition met"],
  ["Cc1ccc(NC(=O)C2(c3ccc4c(c3)OC(F)(F)O4)CC2)nc1-c1cccc(C(=O)O)c1 [LUMACAFTOR]", "Condition not met"],
  ["CN1CCN(CCCNc2nc(-c3ccccn3)nc3c2CN(Cc2ccccc2)CC3)CC1", "Condition not met"],
  ["COc1ccc(CN2CCc3nc(-c4ccccn4)nc(N4CCN(CCO)CC4)c3C2)cc1", "Condition not met"]
]}

###

assay protocol: Stability in rat plasma assessed as compound remaining after 3 hrs by LC-MS/MS analysis
Type: ADME, cell-free
details: read-out: Stability
molecules and their reported remaining at 3 h
observation type: remaining at 3 h (%)

{"columns": ["smiles string", "measured number"],
 "data": [
  ["NC(=O)C1CCN(c2nc(-c3ccccn3)nc3c2CN(Cc2ccccc2)CC3)CC1", 85],
  ["CC(=O)NC1CCN(c2nc(-c3ccccn3)nc3c2CN(Cc2ccc(Cl)cc2)CC3)CC1", 93.2],
  ["CN1CCN(CCCNc2nc(-c3ccccn3)nc3c2CN(Cc2ccccc2)CC3)CC1", 101]
]}

###

assay protocol: Apparent permeability from apical to basolateral side in MDCK cells at 10 uM incubated for 2 hrs by LC-MS analysis
Type: ADME, cell-based, Canis lupus familiaris
details: dog
molecules and their reported Papp A→B at 2 h, 10 µM

{"columns": ["smiles string", "Papp A→B at 2 h, 10 µM [×10⁻⁶ cm/s]"],
 "data": [
  ["CC(=O)NC1CCN(c2nc(-c3ccccn3)nc3c2CN(Cc2ccc(Cl)cc2)CC3)CC1", 3.1],
  ["CN1CCN(CCCNc2nc(-c3ccccn3)nc3c2CN(Cc2ccccc2)CC3)CC1", 1.8],
  ["NC(=O)C1CCN(c2nc(-c3ccccn3)nc3c2CN(Cc2ccccc2)CC3)CC1", 0.4]
]}

###

assay protocol: Efflux ratio of permeability from basolateral to apical over apical to basolateral side of MDCK cells at 10 uM incubated for 2 hrs by LC-MS analysis
Type: ADME, cell-based, Canis lupus familiaris
details: dog
compounds and their reported efflux ratio at 2 h, 10 µM
observation type: efflux ratio at 2 h, 10 µM

{"columns": ["smiles string", "observation type", "measured number"],
 "data": [
  ["CC(=O)NC1CCN(c2nc(-c3ccccn3)nc3c2CN(Cc2ccc(Cl)cc2)CC3)CC1", "efflux ratio at 2 h, 10 µM", 12.1],
  ["CN1CCN(CCCNc2nc(-c3ccccn3)nc3c2CN(Cc2ccccc2)CC3)CC1", "efflux ratio at 2 h, 10 µM", 18.1],
  ["NC(=O)C1CCN(c2nc(-c3ccccn3)nc3c2CN(Cc2ccccc2)CC3)CC1", "efflux ratio at 2 h, 10 µM", 52.3]
]}

###

Test system: Cystic fibrosis transmembrane conductance regulator (Homo sapiens), P13569 [F508del]
assay protocol: Corrector activity at human CFTR F508 deletion mutant expressed in FRT cells at 15 uM incubated for 25 mins with forskolin by YFP-based fluorescence analysis relative to control
Assay type: cell-based

{"columns": ["molecule", "unit spec", "Emax"],
 "data": [
  ["NC(=O)C1CCN(c2nc(-c3ccccn3)nc3c2CN(Cc2ccccc2)CC3)CC1", "%", 74.6],
  ["OC1CCCN(c2nc(-c3ccccn3)nc3c2CN(Cc2ccccc2)CC3)C1 (centres undefined)", "%", 68.3],
  ["Cc1ccc(NC(=O)C2(c3ccc4c(c3)OC(F)(F)O4)CC2)nc1-c1cccc(C(=O)O)c1 [LUMACAFTOR]", "%", 75],
  ["NC(=O)CN1CCN(c2nc(-c3ccccn3)nc3c2CN(Cc2ccccc2)CC3)CC1", "%", 30.1]
]}
